test.name: Half life in human liver microsomes at 1 uM preincubated for 5 mins followed by NADPH addition and measured by LC/MS/MS analysis
Format: ADME, microsome
condition: microsomes, 1 µM
property: t1/2 (min)

[
  {
    "molecule": "O=C(N[C@@H](Cn1ccnc1)c1ccc(-c2ccc(F)cc2)cc1Cl)c1ccc(-c2nnc(-c3ccccn3)o2)cc1",
    "property": "t1/2",
    "assay.value": 56
  },
  {
    "molecule": "[2H]c1c([2H])c([2H])c(-c2ccc([C@H](Cn3ccnc3)NC(=O)c3ccc(-c4nnc(-c5ccccc5)o4)cc3)c(Cl)c2)c([2H])c1[2H]",
    "property": "t1/2",
    "assay.value": 58
  },
  {
    "molecule": "CS(=O)(=O)c1ccc(-c2ccc([C@H](Cn3ccnc3)NC(=O)c3ccc(-c4nnc(-c5ccccc5)o4)cc3)c(Cl)c2)cc1",
    "property": "t1/2",
    "assay.value": 108
  }
]
